Tested on: 253994-281-T-J1-PDC KRAS-mutant spheroids with HUVEC/MSC, viability
TEST DESCRIPTION: Anticancer human tumor 253994-281-T-J1-PDC patient-derived colorectal carcinoma cell line growth inhibition [KRAS2]
CONDITIONS: second compound 10 µM; first compound 0.316 µM; hits give low values
ENDPOINT: viability, T/C (%)
Dear colleague, please return just the value in %, with no unit written.

Here's what some known entries look like.
Sure, the documented viability, T/C for CC(=O)OC12COC1CC(O)C1(C)C(=O)C(O)C3=C(C)C(OC(=O)C(O)C(NC(=O)OC(C)(C)C)c4ccccc4)CC(O)(C(OC(=O)c4ccccc4)C21)C3(C)C (stereo not drawn) + COc1cc2nc(C)nc(NC(C)c3cc(N)cc(C(F)(F)F)c3)c2cc1OC1CCOC1 is 23.3

For O=C(c1cc(Cc2n[nH]c(=O)c3ccccc23)ccc1F)N1CCN(C(=O)C2CC2)CC1 + C=CC(=O)N1CCN(c2nc(=O)n(-c3c(C)ccnc3C(C)C)c3nc(-c4c(O)cccc4F)c(F)cc23)C(C)C1 the compound record lists viability, T/C as 89.4

---
Item: COc1cc(Nc2ncc3c(n2)-c2ccc(Cl)cc2C(c2c(F)cccc2OC)=NC3)ccc1C(=O)O + C=CC(=O)N1CCN(c2nc(=O)n(-c3c(C)ccnc3C(C)C)c3nc(-c4c(O)cccc4F)c(F)cc23)C(C)C1 | viability, T/C: 52.1

###

System: 253994-281-T-J1-PDC KRAS-mutant spheroids with HUVEC/MSC, viability
TEST DESCRIPTION: Anticancer human tumor 253994-281-T-J1-PDC cell line growth inhibition [KRAS2];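 also: spheroids exposed to agents for seven days before readout; percent of DMSO vehicle control viability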
CONDITIONS: second compound 3.16 µM; first compound 1 µM; hits give low values
Under this convention, 1.0 denotes viability, T/C strictly below 70% and 0.0 denotes viability, T/C at or above 70%.

Observe how each entry below is paired with its result.
Dear colleague, could you confirm whether viability, T/C of CC1COCCN1c1cc(-c2ccnn2C)c2ccnc(-c3ccn[nH]3)c2n1 (centres undefined) + CC1OCC2(CCN(c3cnc(Sc4ccnc(N)c4Cl)c(N)n3)CC2)C1N falls below 70%? Thanks.
1.0

# strict comparison: is reported viability, T/C < 70%? input = CC1(C)CCC(CN2CCN(c3ccc(C(=O)NS(=O)(=O)c4ccc(NCC5CCOCC5)c([N+](=O)[O-])c4)c(Oc4cnc5[nH]ccc5c4)c3)CC2)=C(c2ccc(Cl)cc2)C1 + COc1cc2nc(C)nc(NC(C)c3cc(N)cc(C(F)(F)F)c3)c2cc1OC1CCOC1
0.0

Bench note: check whether COC(=O)c1ccc2c(C(=Nc3ccc(N(C)C(=O)CN4CCN(C)CC4)cc3)c3ccccc3)c(O)[nH]c2c1 + C=CC(=O)N1CCN(c2nc(=O)n(-c3c(C)ccnc3C(C)C)c3nc(-c4c(O)cccc4F)c(F)cc23)C(C)C1 shows viability, T/C below 70%
0.0

For this compound, is viability, T/C lower than 70%? CC1(C)CCC(CN2CCN(c3ccc(C(=O)NS(=O)(=O)c4ccc(NCC5CCOCC5)c([N+](=O)[O-])c4)c(Oc4cnc5[nH]ccc5c4)c3)CC2)=C(c2ccc(Cl)cc2)C1 + CC1OCC2(CCN(c3cnc(Sc4ccnc(N)c4Cl)c(N)n3)CC2)C1N
1.0

Could you please tell me whether viability, T/C recorded for CC1(C)CCC(CN2CCN(c3ccc(C(=O)NS(=O)(=O)c4ccc(NCC5CCOCC5)c([N+](=O)[O-])c4)c(Oc4cnc5[nH]ccc5c4)c3)CC2)=C(c2ccc(Cl)cc2)C1 + C=CC(=O)N1CCN(c2nc(OCC3CCCN3C)nc3c2CCN(c2cccc4cccc(C)c24)C3)CC1CC#N is less than 70%?
1.0

New cases:
Input CCN1CCN(Cc2ccc(Nc3ncc(F)c(-c4cc(F)c5nc(C)n(C(C)C)c5c4)n3)nc2)CC1 + C=CC(=O)N1CCN(c2nc(=O)n(-c3c(C)ccnc3C(C)C)c3nc(-c4c(O)cccc4F)c(F)cc23)C(C)C1 ; condition: viability, T/C strictly below 70%. Does it hold?
1.0

Confirm or reject: viability, T/C of CC(C)NCC(C(=O)N1CCN(c2ncnc3c2C(C)CC3O)CC1)c1ccc(Cl)cc1 (centres undefined) + C=CC(=O)N1CCN(c2nc(=O)n(-c3c(C)ccnc3C(C)C)c3nc(-c4c(O)cccc4F)c(F)cc23)C(C)C1 lies strictly below 70%
0.0

Here's an entry: CC(=O)OC12COC1CC(O)C1(C)C(=O)C(O)C3=C(C)C(OC(=O)C(O)C(NC(=O)OC(C)(C)C)c4ccccc4)CC(O)(C(OC(=O)c4ccccc4)C21)C3(C)C (centres undefined) + C=CC(=O)N1CCN(c2nc(OCC3CCCN3C)nc3c2CCN(c2cccc4cccc(C)c24)C3)CC1CC#N . Is its viability, T/C below 70%?
1.0
